The origin of these recorded values is paper PMC2935386.

assayed.target: T1, TRβ1 DBD-LBD (TR DL, TRβ1ΔAB) (human, UniProt P10828 102-461)
T1 sequence: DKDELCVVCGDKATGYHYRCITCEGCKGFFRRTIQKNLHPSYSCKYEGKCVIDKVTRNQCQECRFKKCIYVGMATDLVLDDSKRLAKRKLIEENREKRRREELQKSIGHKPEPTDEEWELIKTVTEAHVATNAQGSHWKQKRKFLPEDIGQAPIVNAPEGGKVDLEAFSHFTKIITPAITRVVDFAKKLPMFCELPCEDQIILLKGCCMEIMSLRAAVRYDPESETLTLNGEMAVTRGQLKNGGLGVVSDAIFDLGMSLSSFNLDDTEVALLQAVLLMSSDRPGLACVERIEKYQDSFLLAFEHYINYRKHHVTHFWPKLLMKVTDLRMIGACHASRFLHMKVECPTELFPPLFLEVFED
method.notes: fluorescence anisotropy; no T3; Hill n 1±0.1; Fluorescence anisotropy: 10 nM DNA, 20 mM Hepes pH 8.0, 50 mM NaCl, 1 mM MgCl2, 3 mM DTT, 5% glycerol, 10°C; agarose gel 1.3% in 0.5x TBE
assay.setup: protein: recombinant; tags: His (pET28a); chain copies: 2; label: 5' fluorescein (FITC) on forward strand; blunt
recorded.endpoint: pKd
Units for pKd: none; it is -log10 of a concentration expressed in mol/L.

Using the record for DR4 TRE (dsDNA) DNA 1: AGTTCAGGTCACAGGAGGTCAGAG DNA 2: CTCTGACCTCCTGTGACCTGAACT , state its measured pKd.
5.69
